This listing pairs sequences with measured total protein half-life in vivo.
# PROTOCOL SUMMARY: total protein half-life in vivo (active degradation + dilution); higher = more stable protein
# CONDITION CONTEXT: E. coli NCM3722 delta-clpP delta-lon delta-hslV; growth: N-lim chemostat; doubling time 6 h
Response body: numeric value in h, unit text excluded.

SEQUENCE RECORD | total protein half-life in vivo [h]
MTRPIQASLDLQALKQNLSIVRQAATHARVWSVVKANAYGHGIERIWSAIGATDGFALLNLEEAITLRERGWKGPILMLEGFFHAQDLEIYDQHRLTTCVHSNWQLKALQNARLKAPLDIYLKVNSGMNRLGFQPDRVLTVWQQLRAMANVGEMTLMSHFAEAEHPDGISGAMARIEQAAEGLECRRSLSNSAATLWHPEAHFDWVRPGIILYGASPSGQWRDIANTGLRPVMTLSSEIIGVQTLKAGERVGYGGRYTARDEQRIGIVAAGYADGYPRHAPTGTPVLVDGVRTMTVGTVSMDMLAVDLTPCPQAGIGTPVELWGKEIKIDDVAAAAGTVGYELMCALALRVPVVTV | 4.49
MKCKRLNEVIELLQPAWQKEPDLNLLQFLQKLAKESGFDGELADLTDDILIYHLKMRDSAKDAVIPGLQKDYEEDFKTALLRARGVIKE [P0ADP9] | 6.97

// query total protein half-life in vivo value for entry MQDKDFFSWRRTMLLRFQRMETAEEVYHEIELQAQQLEYDYYSLCVRHPVPFTRPKVAFYTNYPEAWVSYYQAKNFLAIDPVLNPENFSQGHLMWNDDLFSEAQPLWEAARAHGLRRGVTQYLMLPNRALGFLSFSRCSAREIPILSDELQLKMQLLVRESLMALMRLNDEIVMTPEMNFSKREKEILRWTAEGKTSAEIAMILSISENTVNFHQKNMQKKINAPNKTQVACYAAATGLI
4.97

###

# total protein half-life in vivo listing for each entry below
# PROTOCOL SUMMARY: total protein half-life in vivo (active degradation + dilution); higher = more stable protein
# CONDITION CONTEXT: wild type E. coli NCM3722; growth: C-lim chemostat; doubling time 12 h
Hi! Could you send only the number? It should be in h, unit omitted.

Fill in: total protein half-life in vivo of MMNFNNVFRWHLPFLFLVLLTFRAAAADTLLILGDSLSAGYRMSASAAWPALLNDKWQSKTSVVNASISGDTSQQGLARLPALLKQHQPRWVLVELGGNDGLRGFQPQQTEQTLRQILQDVKAANAEPLLMQIRLPANYGRRYNEAFSAIYPKLAKEFDVPLLPFFMEEVYLKPQWMQDDGIHPNRDAQPFIADWMAKQLQPLVNHDS [P0ADA1] is ___
11.1

Now the sequence MADVHDKATRSKNMRAIATRDTAIEKRLASLLTGQGLAFRVQDASLPGRPDFVVDEYRCVIFTHGCFWHHHHCYLFKVPATRTEFWLEKIGKNVERDRRDISRLQELGWRVLIVWECALRGREKLTDEALTERLEEWICGEGASAQIDTQGIHLLA
8.92

###

# PROTOCOL SUMMARY: total protein half-life in vivo (active degradation + dilution); higher = more stable protein
# CONDITION CONTEXT: E. coli NCM3722 delta-clpP delta-lon delta-hslV; growth: N-lim chemostat; doubling time 6 h
RECORDED ENDPOINT: total protein half-life in vivo (h)
Expressed in h, but write only the number.

// worked examples, total protein half-life in vivo included
SEQUENCE RECORD | UNIT ABBREVIATION | total protein half-life in vivo
MLELLFLLLPVAAAYGWYMGRRSAQQNKQDEANRLSRDYVAGVNFLLSNQQDKAVDLFLDMLKEDTGTVEAHLTLGNLFRSRGEVDRAIRIHQTLMESASLTYEQRLLAIQQLGRDYMAAGLYDRAEDMFNQLTDETDFRIGALQQLLQIYQATSEWQKAIDVAERLVKLGKDKQRVEIAHFYCELALQHMASDDLDRAMTLLKKGAAADKNSARVSIMMGRVFMAKGEYAKAVESLQRVISQDRELVSETLEMLQTCYQQLGKTAEWAEFLQRAVEENTGADAELMLADIIEARDGSEAAQVYITRQLQRHPTMRVFHKLMDYHLNEAEEGRAKESLMVLRDMVGEKVRSKPRYRCQKCGFTAYTLYWHCPSCRAWSTIKPIRGLDGL [P0AB58] | h | 5.9
MKALSKLKAEEGIWMTDVPVPELGHNDLLIKIRKTAICGTDVHIYNWDEWSQKTIPVPMVVGHEYVGEVVGIGQEVKGFKIGDRVSGEGHITCGHCRNCRGGRTHLCRNTIGVGVNRPGCFAEYLVIPAFNAFKIPDNISDDLAAIFDPFGNAVHTALSFDLVGEDVLVSGAGPIGIMAAAVAKHVGARNVVITDVNEYRLELARKMGITRAVNVAKENLNDVMAELGMTEGFDVGLEMSGAPPAFRTMLDTMNHGGRIAMLGIPPSDMSIDWTKVIFKGLFIKGIYGREMFETWYKMAALIQSGLDLSPIITHRFSIDDFQKGFDAMRSGQSGKVILSWD | h | 4.87
MKPLLDVLMILDALEKEGSFAAASAKLYKTPSALSYTVHKLESDLNIQLLDRSGHRAKFTRTGKMLLEKGREVLHTVRELEKQAIKLHEGWENELVIGVDDTFPFSLLAPLIEAFYQHHSVTRLKFINGVLGGSWDALTQGRADIIVGAMHEPPSSSEFGFSRLGDLEQVFAVAPHHPLALEEEPLNRRIIKRYRAIVVGDTAQAGASTASQLLDEQEAITVFDFKTKLELQISGLGCGYLPRYLAQRFLDSGALIEKKVVAQTLFEPVWIGWNEQTAGLASGWWRDEILANSAIAGVYAKSDDGKSAI | h | 5.91
MFQQQKDWETRENAFAAFTMGPLTDFWRQRDEAEFTGVDDIPVRFVRFRAQHHDRVVVICPGRIESYVKYAELAYDLFHLGFDVLIIDHRGQGRSGRLLADPHLGHVNRFNDYVDDLAAFWQQEVQPGPWRKRYILAHSMGGAISTLFLQRHPGVCDAIALTAPMFGIVIRMPSFMARQILNWAEAHPRFRDGYAIGTGRWRALPFAINVLTHSRQRYRRNLRFYADDPTIRVGGPTYHWVRESILAGEQVLAGAGDDATPTLLLQAEEERVVDNRMHDRFCELRTAAGHPVEGGRPLVIKGAYHEILFEKDAMRSVALHAIVDFFNRHNSPSGNRSTEV | h | 5.43

Now for the sequence whose total protein half-life in vivo we want.
Which measured total protein half-life in vivo value corresponds to MQENYKILVVDDDMRLRALLERYLTEQGFQVRSVANAEQMDRLLTRESFHLMVLDLMLPGEDGLSICRRLRSQSNPMPIIMVTAKGEEVDRIVGLEIGADDYIPKPFNPRELLARIRAVLRRQANELPGAPSQEEAVIAFGKFKLNLGTREMFREDEPMPLTSGEFAVLKALVSHPREPLSRDKLMNLARGREYSAMERSIDVQISRLRRMVEEDPAHPRYIQTVWGLGYVFVPDGSKA [P0AA16] ?
5.29

Values compiled from the supplement of paper PMC11246515.
